target: PI3Kβ (complex of human p110β and human p85α) (Homo sapiens (Human), UniProt P42338); test: PI3Kβ kinase assay (HTRF-based PI3K inhibition assay); assay type: biochemical; conditions: ratio of beta IC50 to alpha IC50
Sequence (P42338 whole entry): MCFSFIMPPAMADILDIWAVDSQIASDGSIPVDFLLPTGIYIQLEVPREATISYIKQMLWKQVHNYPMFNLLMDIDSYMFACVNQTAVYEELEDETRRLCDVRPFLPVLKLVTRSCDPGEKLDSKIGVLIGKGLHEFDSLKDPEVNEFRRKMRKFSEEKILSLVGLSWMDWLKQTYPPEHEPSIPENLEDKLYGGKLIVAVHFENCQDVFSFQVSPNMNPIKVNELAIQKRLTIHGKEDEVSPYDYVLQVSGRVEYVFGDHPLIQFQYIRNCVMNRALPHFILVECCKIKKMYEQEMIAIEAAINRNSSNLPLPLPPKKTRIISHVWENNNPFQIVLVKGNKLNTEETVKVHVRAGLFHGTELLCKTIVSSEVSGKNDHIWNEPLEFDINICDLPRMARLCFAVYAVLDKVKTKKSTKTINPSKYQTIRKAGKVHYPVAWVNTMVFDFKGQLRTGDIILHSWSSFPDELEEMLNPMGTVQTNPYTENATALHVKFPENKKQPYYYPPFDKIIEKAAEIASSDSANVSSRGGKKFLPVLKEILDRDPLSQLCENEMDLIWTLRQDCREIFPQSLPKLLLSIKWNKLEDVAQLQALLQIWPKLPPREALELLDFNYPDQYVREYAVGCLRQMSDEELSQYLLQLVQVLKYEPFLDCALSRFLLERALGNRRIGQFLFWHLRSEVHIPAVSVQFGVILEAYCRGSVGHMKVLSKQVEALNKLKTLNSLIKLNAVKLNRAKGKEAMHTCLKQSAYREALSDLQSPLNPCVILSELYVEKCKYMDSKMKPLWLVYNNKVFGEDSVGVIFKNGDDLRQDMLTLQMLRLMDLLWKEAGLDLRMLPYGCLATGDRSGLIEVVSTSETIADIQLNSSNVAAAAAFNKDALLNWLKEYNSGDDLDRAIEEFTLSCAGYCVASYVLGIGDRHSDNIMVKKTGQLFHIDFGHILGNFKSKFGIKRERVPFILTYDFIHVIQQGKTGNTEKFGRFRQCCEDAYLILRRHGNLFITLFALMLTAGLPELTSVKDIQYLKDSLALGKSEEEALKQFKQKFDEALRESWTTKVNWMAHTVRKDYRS
Sequence (P27986 whole entry partner): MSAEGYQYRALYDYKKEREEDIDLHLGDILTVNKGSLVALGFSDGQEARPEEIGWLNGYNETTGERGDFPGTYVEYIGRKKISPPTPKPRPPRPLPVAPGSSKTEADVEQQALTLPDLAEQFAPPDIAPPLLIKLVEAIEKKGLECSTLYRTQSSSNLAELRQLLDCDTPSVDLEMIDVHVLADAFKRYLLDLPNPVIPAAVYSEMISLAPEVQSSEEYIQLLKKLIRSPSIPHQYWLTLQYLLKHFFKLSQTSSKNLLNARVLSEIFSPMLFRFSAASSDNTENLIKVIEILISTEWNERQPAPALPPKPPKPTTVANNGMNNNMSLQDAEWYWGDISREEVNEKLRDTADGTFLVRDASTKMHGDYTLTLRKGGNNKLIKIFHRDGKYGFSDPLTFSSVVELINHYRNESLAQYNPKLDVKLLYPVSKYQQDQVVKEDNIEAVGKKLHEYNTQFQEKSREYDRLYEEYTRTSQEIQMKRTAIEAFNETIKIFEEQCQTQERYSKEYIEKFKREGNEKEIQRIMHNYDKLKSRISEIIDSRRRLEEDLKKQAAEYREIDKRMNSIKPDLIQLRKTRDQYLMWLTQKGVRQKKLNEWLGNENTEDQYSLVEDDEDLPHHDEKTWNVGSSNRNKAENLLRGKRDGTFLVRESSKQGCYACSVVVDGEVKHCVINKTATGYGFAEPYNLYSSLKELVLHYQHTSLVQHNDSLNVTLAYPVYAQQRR
MEASUREMENT_NAME: PI3K beta average IC50/PI3K alpha average IC50

COMPOUND	TESTED_ON	ENDPOINT_VALUE
COc1c(OC[C@H](O)CN2CCOCC2)ccc2c1N=C(NC(=O)c1ccc(N)nc1C)N1CCN=C21	PI3Kβ (complex of human p110β and human p85α) (Homo sapiens (Human), UniProt P42338)	7.30
COc1c(OC[C@H](O)CN(C(C)C)C(C)C)ccc2c1N=C(NC(=O)c1cccnc1C)N1CCN=C21	PI3Kβ (complex of human p110β and human p85α) (Homo sapiens (Human), UniProt P42338)	4.20
COc1c(OCC(O)CN2CCOCC2)ccc2c1N=C(NC(=O)c1ccc(N)nc1)N1CCN=C21 (stereo not shown)	PI3Kβ (complex of human p110β and human p85α) (Homo sapiens (Human), UniProt P42338)	9.37
COc1c(OCC(O)CN(C)C)ccc2c1N=C(NC(=O)c1cccnc1)N1CCN=C21 (stereo not shown)	PI3Kβ (complex of human p110β and human p85α) (Homo sapiens (Human), UniProt P42338)	5.47
COc1c(OC[C@H](O)CN2CCCCC2)ccc2c1N=C(NC(=O)c1cccnc1C)N1CCN=C21	PI3Kβ (complex of human p110β and human p85α) (Homo sapiens (Human), UniProt P42338)	2.78
COc1c(OC[C@H](O)CN2CCCC2)ccc2c1N=C(NC(=O)c1scnc1C)N1CCN=C21	PI3Kβ (complex of human p110β and human p85α) (Homo sapiens (Human), UniProt P42338)	5.64
COc1c(OC[C@H](O)CN2CC3CCC(C2)O3)ccc2c1N=C(NC(=O)c1cccnc1)N1CCN=C21	PI3Kβ (complex of human p110β and human p85α) (Homo sapiens (Human), UniProt P42338)	3.68
COc1c(OC[C@H](O)CN2CCCCC2)ccc2c1N=C(NC(=O)c1cccnc1)N1CCN=C21	PI3Kβ (complex of human p110β and human p85α) (Homo sapiens (Human), UniProt P42338)	2.02
COc1c(OC[C@H](O)CN2CCOCC2)ccc2c1N=C(NC(=O)c1cncs1)N1CCN=C21	PI3Kβ (complex of human p110β and human p85α) (Homo sapiens (Human), UniProt P42338)	5.91
COc1c(OC[C@H](O)CN2CCOCC2)ccc2c1N=C(NC(=O)c1sc(N)nc1C)N1CCN=C21	PI3Kβ (complex of human p110β and human p85α) (Homo sapiens (Human), UniProt P42338)	5.32
COc1c(OC[C@H](O)CN(C)C)ccc2c1N=C(NC(=O)c1cccnc1)N1CCN=C21	PI3Kβ (complex of human p110β and human p85α) (Homo sapiens (Human), UniProt P42338)	1.60
COc1c(OC[C@H](O)CN2CCCCC2)ccc2c1N=C(NC(=O)c1cncs1)N1CCN=C21	PI3Kβ (complex of human p110β and human p85α) (Homo sapiens (Human), UniProt P42338)	2.98
COc1c(OC[C@H](O)CN2CCCC2)ccc2c1N=C(NC(=O)c1cccnc1)N1CCN=C21	PI3Kβ (complex of human p110β and human p85α) (Homo sapiens (Human), UniProt P42338)	2.62
COc1c(OC[C@H](O)CN2CCC2)ccc2c1N=C(NC(=O)c1cccnc1C)N1CCN=C21	PI3Kβ (complex of human p110β and human p85α) (Homo sapiens (Human), UniProt P42338)	3.94
COc1c(OC[C@H](O)CN2C[C@@H](C)O[C@@H](C)C2)ccc2c1N=C(NC(=O)c1cnc(N)nc1)N1CCN=C21	PI3Kβ (complex of human p110β and human p85α) (Homo sapiens (Human), UniProt P42338)	5.52
COc1c(OC[C@H](O)CN(C(C)C)C(C)C)ccc2c1N=C(NC(=O)c1cccnc1)N1CCN=C21	PI3Kβ (complex of human p110β and human p85α) (Homo sapiens (Human), UniProt P42338)	4.74

====

Known inhibition at 0.93 µM of a selection of molecules
biological target: PI3Kβ (complex of human p110β and human p85α) (Homo sapiens (Human), UniProt P42338); assay: PI3Kβ kinase assay (HTRF-based PI3K inhibition assay); assay type: biochemical; conditions: 0.93 μM compound; read-out: PI3K beta average % Inhibition at 0.93 μM;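 note: Kinase-made PIP3 detected by HTRF, displacing biotinylated PIP3 tracer from a complex of Europium anti-GST antibody, GST-fused PH domain and Streptavidin-APC, read as Europium-to-APC energy transfer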

MOLECULE	inhibition at 0.93 µM [%]
COc1c(OC[C@H](O)CN2C[C@@H](C)O[C@@H](C)C2)ccc2c1N=C(NC(=O)c1cccnc1)N1CCN=C21 [Example 4]	96.4
COc1c(OC[C@H](O)CN2CCCC2)ccc2c1N=C(NC(=O)c1scnc1C)N1CCN=C21 [Example 38]	95.1
COc1c(OC[C@H](O)CN2CCCC2)ccc2c1N=C(NC(=O)c1cnco1)N1CCN=C21 [Example 40]	72.7
COc1c(OCC(O)CN2CCSCC2)ccc2c1N=C(NC(=O)c1cccnc1)N1CCN=C21 (stereo not shown) [Example 6]	84.1
COc1c(OC[C@H](O)CN2C[C@@H](C)O[C@@H](C)C2)ccc2c1N=C(NC(=O)c1cncs1)N1CCN=C21 [Example 34]	97.1
COc1c(OC[C@H](O)CN2CCCCC2)ccc2c1N=C(NC(=O)c1cccnc1C)N1CCN=C21 [Example 19]	91.2
COc1c(OC[C@H](O)CN(C)C)ccc2c1N=C(NC(=O)c1cnc(N)nc1)N1CCN=C21 [Example 29]	106

====

biological target: PI3Kβ (complex of human p110β and human p85α) (Homo sapiens (Human)); test: PI3Kβ kinase assay (HTRF-based PI3K inhibition assay); details: 10 μM ATP, 10 μM PIP2, 20 min at 22° C.; read-out: average IC50 in the PI3K beta biochemical assay
pIC50: −log10 of the molar value.

CHEMICAL_STRUCTURE	pIC50
COc1c(OC[C@H](O)CN2CC3CCC(C2)O3)ccc2c1N=C(NC(=O)c1cccnc1)N1CCN=C21	7.30 to 8.00
COc1c(OC[C@H](O)CN2C[C@@H](C)O[C@@H](C)C2)ccc2c1N=C(NC(=O)c1cccnc1)N1CCN=C21	< 7.30
COc1c(OC[C@H](O)CN2CCOCC2)ccc2c1N=C(NC(=O)c1cccnc1C)N1CCN=C21	7.30 to 8.00
COc1c(OC[C@H](O)CN2CCC2)ccc2c1N=C(NC(=O)c1cncs1)N1CCN=C21	7.30 to 8.00

====

biological target: PI3Kβ (complex of human p110β and human p85α) (Homo sapiens (Human)); assay: PI3Kβ kinase assay (HTRF-based PI3K inhibition assay); format: biochemical; conditions: ratio of beta IC50 to alpha IC50
MEASUREMENT_NAME: PI3K beta average IC50/PI3K alpha average IC50

COMPOUND	TESTED_ON	ENDPOINT_VALUE
COc1c(OC[C@H](O)CN2CCOCC2)ccc2c1N=C(NC(=O)c1cccnc1C)N1CCN=C21	PI3Kβ (complex of human p110β and human p85α) (Homo sapiens (Human))	3.09
COc1c(OC[C@H](O)CN2C[C@@H](C)O[C@@H](C)C2)ccc2c1N=C(NC(=O)c1cccnc1)N1CCN=C21	PI3Kβ (complex of human p110β and human p85α) (Homo sapiens (Human))	4.85
COc1c(OC[C@H](O)CN(C(C)C)C(C)C)ccc2c1N=C(NC(=O)c1cncs1)N1CCN=C21	PI3Kβ (complex of human p110β and human p85α) (Homo sapiens (Human))	5.83
COc1c(OC[C@H](O)CN2CCCC2)ccc2c1N=C(NC(=O)c1cncs1)N1CCN=C21	PI3Kβ (complex of human p110β and human p85α) (Homo sapiens (Human))	3.41
COc1c(OC[C@H](O)CN2CCC2)ccc2c1N=C(NC(=O)c1cncs1)N1CCN=C21	PI3Kβ (complex of human p110β and human p85α) (Homo sapiens (Human))	6.30
COc1c(OC[C@H](O)CN2CCCC2)ccc2c1N=C(NC(=O)c1cccnc1C)N1CCN=C21	PI3Kβ (complex of human p110β and human p85α) (Homo sapiens (Human))	3.90
COc1c(OC[C@H](O)CN2CCCC2)ccc2c1N=C(NC(=O)c1cncnc1)N1CCN=C21	PI3Kβ (complex of human p110β and human p85α) (Homo sapiens (Human))	1.99
COc1c(OCC(O)CN2CCOCC2)ccc2c1N=C(NC(=O)c1cnc(N)nc1)N1CCN=C21 (stereo not shown)	PI3Kβ (complex of human p110β and human p85α) (Homo sapiens (Human))	8.30
COc1c(OC[C@H](O)CN2CCOCC2)ccc2c1N=C(NC(=O)c1cnc3[nH]cnc3c1)N1CCN=C21	PI3Kβ (complex of human p110β and human p85α) (Homo sapiens (Human))	8.83
COc1c(OC[C@H](O)CN2CCC2)ccc2c1N=C(NC(=O)c1cccnc1)N1CCN=C21	PI3Kβ (complex of human p110β and human p85α) (Homo sapiens (Human))	2.22
COc1c(OC[C@H](O)CN2C[C@@H](C)O[C@@H](C)C2)ccc2c1N=C(NC(=O)c1cncs1)N1CCN=C21	PI3Kβ (complex of human p110β and human p85α) (Homo sapiens (Human))	7.21
COc1c(OC[C@H](O)CN2C[C@@H](C)O[C@@H](C)C2)ccc2c1N=C(NC(=O)c1cccnc1C)N1CCN=C21	PI3Kβ (complex of human p110β and human p85α) (Homo sapiens (Human))	5.36
COc1c(OC[C@H](O)CN(C)C)ccc2c1N=C(NC(=O)c1cnc(N)nc1)N1CCN=C21	PI3Kβ (complex of human p110β and human p85α) (Homo sapiens (Human))	6.75

Value source: patent US8895549B2
